- assayComment: Intrinsic aqueous solubility of the compound
- Assay type: physicochemical
quantityName: solubility (µg/mL)

Examples with their reported solubility follow.
{"givenSmiles": "Cc1cc(NCCN(C)C)nc2ccc(NC(=O)c3ccc(Cl)c(Cl)c3)cc12", "valueReported": 122}
{"givenSmiles": "Cc1cc(NCCN2CCOCC2)nc2ccc(NC(=O)c3ccc(Cl)c(Cl)c3)cc12", "valueReported": 76.2}
{"givenSmiles": "CCN(CC)CCNc1cc(C)c2cc(NC(=O)c3ccc(Cl)c(Cl)c3)ccc2n1", "valueReported": 95.2}

(A) Cc1cc(NCCN2CCN(C)CC2)nc2ccc(NC(=O)c3ccc(Cl)c(Cl)c3)cc12
(B) CCN1CCN(c2cc(C)c3cc(NC(=O)c4ccc(Cl)c(Cl)c4)ccc3n2)CC1
(C) Cc1cc(NCCN2CCCCC2)nc2ccc(NC(=O)c3ccc(Cl)c(Cl)c3)cc12
Req: Arrange by solubility, high to low. Put the labels in the requested order and write them down.
Resp: A, C, B
(A: 106 µg/mL, C: 70.8 µg/mL, B: 11.3 µg/mL)

---

- Tested on: MCF7
- assayComment: Antiproliferative activity against human MCF7 cells incubated for 72 hrs by MTT assay
- Format: functional, cell-based
- protocolConditions: MCF7, 72 h
quantityName: IC50 (µM)

Some compounds with known IC50 results, for comparison:
{"compound": "CCN1CCN(c2cc(C)c3cc(NC(=O)c4ccccc4C)ccc3n2)CC1", "quantityName": "IC50", "valueReported": 10.9}
{"compound": "CCN1CCN(c2cc(C)c3cc(NC(=O)c4ccc(C)cc4)ccc3n2)CC1", "quantityName": "IC50", "valueReported": 6.74}
{"compound": "CCN1CCN(c2cc(C)c3cc(NC(=O)c4ccc(Cl)cc4)ccc3n2)CC1", "quantityName": "IC50", "valueReported": 1.53}

(I) CCNc1cc(C)c2cc(NC(=O)c3ccc(Cl)c(Cl)c3)ccc2n1
(II) CNc1cc(C)c2cc(NC(=O)c3ccc(Cl)c(Cl)c3)ccc2n1
Req: Hey, which is lower on measured IC50, I or II ? Pick one and reply with its label.
Resp: II

(I) CCN1CCN(c2cc(C)c3cc(NC(=O)c4ccco4)ccc3n2)CC1
(II) CCN1CCN(c2cc(C)c3cc(NC(=O)c4cccc(Br)c4)ccc3n2)CC1
(III) CCN(CC)CCNc1cc(C)c2cc(NC(=O)c3ccc(Cl)c(Cl)c3)ccc2n1
Req: Rank order required: IC50, descending. I'd appreciate it if you listed the labels in the requested order.
Resp: I, II, III

(1) CCc1ccccc1C(=O)Nc1ccc2nc(N3CCN(CC)CC3)cc(C)c2c1
(2) Cc1oc2ncn(CC(C)C)c(=O)c2c1C(=O)Nc1ccc(C(=O)NCCN2CCCC2)nc1
Req: Thinking about recorded IC50 values, which is higher, 1 or 2 ? Write down the label attached to your selection.
Resp: 1
(1: 15.8 µM, 2: 8.41 µM)

(1) Cc1cc(N2CCCC2)nc2ccc(NC(=O)c3ccc(Cl)c(Cl)c3)cc12
(2) Cc1cc(NCCN2CCCC2)nc2ccc(NC(=O)c3ccc(Cl)c(Cl)c3)cc12
Req: Larger number for IC50: 1 , or 2 ? Respond using the label that marks the chosen record.
Resp: 1
(1: 26.3 µM, 2: 1.28 µM)

---

- Tested on: MCF7
- assayComment: Antiproliferative activity against human MCF7 cells incubated for 72 hrs by MTT assay
- Format: functional, cell-based
- protocolConditions: MCF7, 72 h
pIC50: −log10 of the molar value.
quantityName: pIC50

Below are worked cases with known answers.
{"compound": "CCN1CCN(c2cc(C)c3cc(NC(=O)c4ccc[nH]4)ccc3n2)CC1", "pIC50": 4.83}
{"compound": "Cc1cc(NCCN2CCOCC2)nc2ccc(NC(=O)c3ccc(Cl)c(Cl)c3)cc12", "pIC50": 5.28}
{"compound": "CCN1CCN(c2cc(C)c3cc(NC(=O)c4ccccc4)ccc3n2)CC1", "pIC50": 4.85}
{"compound": "CCN(CC)CCOC(=O)c1ccc(NC(=O)C2=CC3C(c4ccccc4F)=NN(C)C3S2)cc1 (centres undefined)", "pIC50": 5.27}
{"compound": "Cc1cc(N2CCN(C)CC2)nc2ccc(NC(=O)c3ccc(Cl)c(Cl)c3)cc12", "pIC50": 5.52}

(a) Cc1cc(N2CCCCC2)nc2ccc(NC(=O)c3ccc(Cl)c(Cl)c3)cc12
(b) Cc1cc(NCCN2CCN(C)CC2)nc2ccc(NC(=O)c3ccc(Cl)c(Cl)c3)cc12
Req: So which one has the bigger pIC50 here, a or b ? Kindly state the label of the option you pick.
Resp: b
(b: 5.77, a: 4.51)

---

- System: MCF7
- assayComment: Antiproliferative activity against human MCF7 cells incubated for 72 hrs by MTT assay
- Assay type: functional, cell-based
- protocolConditions: MCF7, 72 h
pIC50: −log10 of the molar value.
quantityName: pIC50

{"givenSmiles": "CCN1CCN(c2cc(C)c3cc(NC(=O)c4ccc(OC)c(OC)c4)ccc3n2)CC1", "pIC50": 5.44}
{"givenSmiles": "CCN1CCN(c2cc(C)c3cc(NC(=O)c4cccc(C)c4)ccc3n2)CC1", "pIC50": 5.11}
{"givenSmiles": "Cc1cc(N2CCOCC2)nc2ccc(NC(=O)c3ccc(Cl)c(Cl)c3)cc12", "pIC50": 4.92}

(P) CCN1CCN(c2cc(C)c3cc(NC(=O)c4ccccc4OC)ccc3n2)CC1
(Q) CCN1CCN(c2cc(C)c3cc(NC(=O)c4ccc(F)cc4)ccc3n2)CC1
(R) CCN1CCN(c2cc(C)c3cc(NC(=O)c4cccnc4)ccc3n2)CC1
(S) Cc1cc(NCCN(C)C)nc2ccc(NC(=O)c3ccc(Cl)c(Cl)c3)cc12
Req: Please produce an ascending ranking of these compounds based on pIC50. Please list each label once, in the requested order.
Resp: R, P, Q, S
(R: 4.58, P: 4.88, Q: 5.39, S: 5.59)

(1) CCN1CCN(c2cc(C)c3cc(NC(=O)c4ccccc4F)ccc3n2)CC1
(2) CCN1CCN(c2cc(C)c3cc(NC(=O)c4cc(Cl)cc(Cl)c4)ccc3n2)CC1
(3) CCN1CCN(c2cc(C)c3cc(NC(=O)c4ccc(Cl)c(Cl)c4)ccc3n2)CC1
(4) CCN1CCN(c2cc(C)c3cc(NC(=O)c4cc5ccccc5[nH]4)ccc3n2)CC1
Req: Order the 4 compounds from highest to lowest pIC50. A complete answer lists every label in the requested sequence.
Resp: 3, 4, 2, 1
(3: 5.86, 4: 5.53, 2: 5.22, 1: 4.49)

---

- System: MCF7
- assayComment: Antiproliferative activity against human MCF7 cells incubated for 72 hrs by MTT assay
- Format: functional, cell-based
- protocolConditions: MCF7, 72 h
quantityName: IC50 (µM)

Here's what some known entries look like.
{"givenSmiles": "CCN1CCN(c2cc(C)c3cc(NC(=O)c4cccc(OC)c4)ccc3n2)CC1", "quantityName": "IC50", "valueReported": 4.86}
{"givenSmiles": "CCN1CCN(c2cc(C)c3cc(NC(=O)c4ccc5c(c4)OCO5)ccc3n2)CC1", "quantityName": "IC50", "valueReported": 4.61}
{"givenSmiles": "CCN1CCN(c2cc(C)c3cc(NC(=O)c4ccc(OC)cc4)ccc3n2)CC1", "quantityName": "IC50", "valueReported": 7.69}
{"givenSmiles": "CCN1CCN(c2cc(C)c3cc(NC(=O)c4ccc(F)c(F)c4)ccc3n2)CC1", "quantityName": "IC50", "valueReported": 5.23}

(a) CCN1CCN(c2cc(C)c3cc(NC(=O)c4ccccc4Br)ccc3n2)CC1
(b) CCN1CCN(c2cc(C)c3cc(NC(=O)c4ccc(Br)cc4)ccc3n2)CC1
(c) Cc1cc(NCCN2CCCCC2)nc2ccc(NC(=O)c3ccc(Cl)c(Cl)c3)cc12
(d) CCN1CCN(c2cc(C)c3cc(NC(=O)c4cccc(F)c4)ccc3n2)CC1
Req: Arrange items by their IC50 values in increasing order. Could you list the labels in the order requested?
Resp: c, b, d, a
(c: 1.19 µM, b: 5.94 µM, d: 8.92 µM, a: 27.5 µM)

---

- Test system: MCF7
- assayComment: Antiproliferative activity against human MCF7 cells incubated for 72 hrs by MTT assay
- Format: functional, cell-based
- protocolConditions: MCF7, 72 h
pIC50: −log10 of the molar value.
Each item that follows carries a reported pIC50.

{"givenSmiles": "CCN1CCN(c2cc(C)c3cc(NC(=O)c4ccccc4Cl)ccc3n2)CC1", "pIC50": "< 4.30"}
{"givenSmiles": "CCN1CCN(c2cc(C)c3cc(NC(=O)c4ccncc4)ccc3n2)CC1", "pIC50": "< 4.30"}

Req: Item "CCN(CC)c1cc(C)c2cc(NC(=O)c3ccc(Cl)c(Cl)c3)ccc2n1" has what recorded pIC50?
Resp: < 4.30
